# assay.method.text: solvent given as SMILES
# experimental.setup: in C1COCCO1
recorded.metric: absorption maximum

CN(C)c1ncc2nc(C#N)n(Cc3ccccc3)c2n1    355 nm
Cc1c2ccncc2c(C)c2c1[nH]c1ccccc12    292.5 nm
O=C1Nc2ccccc2/C1=C/C(=O)c1ccc([N+](=O)[O-])cc1    343 nm
O=C1c2ccccc2C(=O)N1c1ccc(Cn2cncn2)cc1    284 nm
CN1C(C(=O)Nc2ccccn2)=C(O)c2sccc2S1(=O)=O    344 nm

For every listed record, write down its absorption maximum.
1. Cc1ccc(OCc2cc(=O)oc3c2ccc2ccccc23)cc1
2. CN(C)c1ccc(/C=C/c2ccc([N+](=O)[O-])c(O)c2)cc1
3. O=CN1N=C(c2ccc(Br)cc2)C[C@@H]1c1ccccc1
4. CN(C)c1ccc(C2=Cc3c4ccccc4c4ccccc4[n+]3[B-](F)(F)O2)cc1
5. CC1(C)CCc2c(c3ccccc3c3nc4c5c(c6ccccc6c4nc23)OC(C)(C)CC5)O1
6. O=C1c2ccc3c4ccc5c6c(ccc(c7ccc(c2c37)C(=O)N1c1ccncc1)c64)C(=O)N(c1ccncc1)C5=O
7. CCCCN1c2ccccc2Sc2cc(/C=C/C3=Nc4ccc5ccccc5c4C3(C)C)ccc21

Reply text:
1. 352 nm
2. 448 nm
3. 303 nm
4. 477 nm
5. 459.98 nm
6. 525 nm
7. 417 nm

---

# assay.method.text: solvent given as SMILES
# experimental.setup: in C1CCOC1
recorded.metric: absorption maximum (nm)
Answers are plain numbers, in nm.

// below: answered compounds
c1ccc(/C(=C(\c2ccccc2)c2ccccc2-c2ccc(-c3ccccc3)cc2)c2ccccc2-c2ccc(-c3ccccc3)cc2)cc1    280
COC(=O)c1ccc(C#Cc2c3c(c4c(-c5ccccc5)c(-c5ccccc5)c(-c5ccccc5)c(-c5ccccc5)c4c2-c2ccc(C(=O)OC)cc2)CC(C(=O)OC)(C(=O)OC)C3)cc1    347.38
CC(C)(C)c1ccc(-c2nc3c4ccc(-c5cc6ccccc6c6ccccc56)cc4c4cc(-c5cc6ccccc6c6ccccc56)ccc4c3n2-c2ccc(C(C)(C)C)cc2)cc1    325
CSc1sc(C(C)=O)c2nn[nH]c(=O)c12    392.5
COc1ccc(N(c2ccc(OC)cc2)c2ccc3c4cccc5c(N(c6ccc(OC)cc6)c6ccc(OC)cc6)ccc(c6cccc2c63)c54)cc1    515

For every listed record, write down its absorption maximum.
1. N#CC(C#N)=C(/C=C/c1ccc(N(c2ccccc2)c2ccccc2)cc1)c1ccc2c3c(cccc13)CC2
2. c1ccc(-n2c(-c3ccccc3-n3c4ccccc4c4ccccc43)nc3ccccc32)cc1
3. N#Cc1cc2ccc(O)cc2oc1=N
4. COc1cc(OC)cc(C2=C3C(C)=C(I)C(C)=[N+]3[B-](F)(F)n3c(/C=C/c4c[nH]c5ccccc45)c(I)c(C)c32)c1
5. Cc1c(C2=[N+]3C(=Cc4c(C)c5ccccc5n4[B-]3(F)F)c3ccccc32)[nH]c2ccccc12

Reply text:
[485, 352, 360, 627, 608]

For every listed record, write down its absorption maximum.
1. Cc1ccc(C2=C3C=CC(Cl)=[N+]3[B-](F)(F)n3c(Cl)ccc32)cc1
2. O=[N+]([O-])c1ccc(F)cc1C1CC(c2cccc3ccccc23)=NN1c1ccccc1 (configuration not stated)
3. COC(=O)c1ccc2ccc3cccc4ccc1c2c34

Reply text:
511
374
379

For every listed record, write down its absorption maximum.
1. Cc1ccc(N(c2ccc(C)cc2)c2ccc3c4cccc5c(N(c6ccc(C)cc6)c6ccc(C)cc6)ccc(c6cccc2c63)c54)cc1
2. N#C/C(=C\c1cn(-c2ccccc2)nc1-c1ccc([N+](=O)[O-])cc1)c1nc2ccccc2s1

Reply text:
1: 502; 2: 378

For every listed record, write down its absorption maximum.
1. CCc1c(C)[nH]c(C2=[N+]3C(=Cc4c(C)c(CC)c(C)n4[B-]3(F)F)c3ccccc32)c1C
2. CN(C)c1ccc(C2=Nc3scc(-c4ccccc4)[n+]3[B-](F)(F)O2)cc1

Reply text:
629
406
